Target: Coagulation Factor Xa, from uman plasma (Homo sapiens)
Sequence (P00742 235-488 limits assumed): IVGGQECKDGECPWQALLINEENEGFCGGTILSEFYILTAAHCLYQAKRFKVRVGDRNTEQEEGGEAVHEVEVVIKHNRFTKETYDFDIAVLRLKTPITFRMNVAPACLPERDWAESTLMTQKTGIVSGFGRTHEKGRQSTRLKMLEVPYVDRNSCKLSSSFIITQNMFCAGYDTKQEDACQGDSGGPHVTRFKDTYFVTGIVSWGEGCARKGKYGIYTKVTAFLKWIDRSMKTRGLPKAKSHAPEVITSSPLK
Sequence (P00742 41-179 limits assumed): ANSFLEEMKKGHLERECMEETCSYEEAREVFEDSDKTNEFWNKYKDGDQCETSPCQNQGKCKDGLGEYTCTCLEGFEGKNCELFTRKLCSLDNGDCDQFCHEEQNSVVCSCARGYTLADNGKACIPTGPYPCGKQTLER
Assay: Enzymatic assay, coagulation factor Xa
Where a SMILES comes first, the peptide text is derived from it.
endpoint: FXa at 100 μM % (%)

INSERT INTO measurements (molecule, system_name, units_label, result_value) VALUES
  ('CC[C@H](C)[C@@H]1NC(=O)[C@H](CO)NC(=O)[C@H](C)NC(=O)[C@H]([C@@H](C)O)NC(=O)[C@@H]2CSSC[C@H](NC(=O)[C@H](CCC(N)=O)NC(=O)[C@@H]3CCCN3C(=O)[C@@H]3CCCN3C1=O)C(=O)N[C@@H](Cc1ccc(O)cc1)C(=O)N1CCC[C@@H]1C(=O)N1CCC[C@H]1C(=O)N[C@@H](CCc1ccccc1)C(=O)N2 [Ex. 103] (HELM PEPTIDE1{[O=C([C@H](CCc1ccccc1)N[*:1])[*:2]].C.T.A.S.I.P.P.Q.C.Y.[dP].P}$PEPTIDE1,PEPTIDE1,2:R3-10:R3|PEPTIDE1,PEPTIDE1,1:R1-13:R2$$$V2.0)', 'Coagulation Factor Xa, from uman plasma (Homo sapiens)', '%', 3),
  ('CCCC[C@@H]1NC(=O)[C@@H]2CCCN2C(=O)[C@H]2CCCN2C(=O)[C@H](CC2CCCCC2)NC(=O)[C@@H]2CSSC[C@H](NC1=O)C(=O)N[C@@H]([C@@H](C)O)C(=O)N[C@@H](C)C(=O)N[C@@H](CO)C(=O)N[C@@H]([C@@H](C)CC)C(=O)N1CCC[C@H]1C(=O)N1CCC[C@H]1C(=O)N[C@@H](CCC(N)=O)C(=O)N2 [Ex. 97] (HELM PEPTIDE1{[Nle].C.T.A.S.I.P.P.Q.C.[Cha].[dP].P}$PEPTIDE1,PEPTIDE1,2:R3-10:R3|PEPTIDE1,PEPTIDE1,1:R1-13:R2$$$V2.0)', 'Coagulation Factor Xa, from uman plasma (Homo sapiens)', '%', 4.8),
  ('CCCC[C@@H]1NC(=O)[C@@H]2CCCN2C(=O)[C@H]2CCCN2C(=O)[C@H](Cc2ccc(O)cc2)NC(=O)[C@@H]2CSSC[C@H](NC1=O)C(=O)N[C@@H]([C@@H](C)O)C(=O)N[C@@H](C)C(=O)N[C@@H](CO)C(=O)N[C@@H]([C@@H](C)CC)C(=O)N1CCC[C@H]1C(=O)N1CC(NC(=O)c3ccccc3)C[C@H]1C(=O)N[C@@H](CCC(N)=O)C(=O)N2 (single isomer, unassigned) [Ex. 88]', 'Coagulation Factor Xa, from uman plasma (Homo sapiens)', '%', 3),
  ('CC[C@H](C)[C@@H]1NC(=O)[C@@H]2CCCN2C(=O)[C@@H]2CCCN2C(=O)[C@H](CC(=O)O)NC(=O)[C@H](CO)NC(=O)[C@H](CCCCN)NC(=O)[C@H]([C@@H](C)O)NC(=O)[C@@H]2CSSC[C@H](NC1=O)C(=O)N[C@@H](Cc1ccc(O)cc1)C(=O)N1CCC[C@@H]1C(=O)N1CCC[C@H]1C(=O)N[C@@H](CCc1ccccc1)C(=O)N2 [Ex. 30] (HELM PEPTIDE1{[O=C([C@H](CCc1ccccc1)N[*:1])[*:2]].C.T.K.S.D.P.P.I.C.Y.[dP].P}$PEPTIDE1,PEPTIDE1,2:R3-10:R3|PEPTIDE1,PEPTIDE1,1:R1-13:R2$$$V2.0)', 'Coagulation Factor Xa, from uman plasma (Homo sapiens)', '%', 3),
  ('CCCC[C@@H]1NC(=O)[C@H]([C@@H](C)O)NC(=O)[C@@H]2CSSC[C@H](NC(=O)[C@H]([C@@H](C)CC)NC(=O)[C@@H]3CCCN3C(=O)[C@@H]3CCCN3C(=O)[C@H](CC(=O)O)NC(=O)[C@H](CO)NC1=O)C(=O)N[C@@H](Cc1ccc(O)cc1)C(=O)N1CCC[C@@H]1C(=O)N1CCC[C@H]1C(=O)N[C@@H](Cc1ccccc1)C(=O)N2 [Ex. 23] (HELM PEPTIDE1{F.C.T.[Nle].S.D.P.P.I.C.Y.[dP].P}$PEPTIDE1,PEPTIDE1,2:R3-10:R3|PEPTIDE1,PEPTIDE1,1:R1-13:R2$$$V2.0)', 'Coagulation Factor Xa, from uman plasma (Homo sapiens)', '%', 11),
  ('CCCC[C@@H]1NC(=O)[C@@H]2CCCN2C(=O)[C@H]2CCCN2C(=O)[C@H](c2ccccc2)NC(=O)[C@@H]2CSSC[C@H](NC1=O)C(=O)N[C@@H]([C@@H](C)O)C(=O)N[C@@H](C)C(=O)N[C@@H](CO)C(=O)N[C@@H]([C@@H](C)CC)C(=O)N1CCC[C@H]1C(=O)N1CCC[C@H]1C(=O)N[C@@H](CCC(N)=O)C(=O)N2 [Ex. 98] (HELM PEPTIDE1{[Nle].C.T.A.S.I.P.P.Q.C.[Phg].[dP].P}$PEPTIDE1,PEPTIDE1,2:R3-10:R3|PEPTIDE1,PEPTIDE1,1:R1-13:R2$$$V2.0)', 'Coagulation Factor Xa, from uman plasma (Homo sapiens)', '%', 0),
  ('CCCC[C@@H]1NC(=O)[C@@H]2CCCN2C(=O)[C@H]2CCCN2C(=O)[C@H](Cc2ccc(O)cc2)NC(=O)[C@@H]2CSSC[C@H](NC1=O)C(=O)N[C@@H]([C@@H](C)O)C(=O)N[C@@H](CCCCN)C(=O)N[C@@H](CO)C(=O)N[C@@H](CC(=O)O)C(=O)N1CCC[C@H]1C(=O)N1CCC[C@H]1C(=O)N[C@@H]([C@@H](C)CC)C(=O)N2 [Ex. 44] (HELM PEPTIDE1{[Nle].C.T.K.S.D.P.P.I.C.Y.[dP].P}$PEPTIDE1,PEPTIDE1,2:R3-10:R3|PEPTIDE1,PEPTIDE1,1:R1-13:R2$$$V2.0)', 'Coagulation Factor Xa, from uman plasma (Homo sapiens)', '%', 9),
  ('CC[C@H](C)[C@@H]1NC(=O)[C@H](CO)NC(=O)[C@H](C)NC(=O)[C@H]([C@@H](C)O)NC(=O)[C@@H]2CSSC[C@H](NC(=O)[C@H](CCC(N)=O)NC(=O)[C@@H]3CCCN3C(=O)[C@@H]3CCCN3C1=O)C(=O)N[C@@H](CCC(N)=O)C(=O)N1CCC[C@@H]1C(=O)N1CCC[C@H]1C(=O)N[C@@H](CCc1ccccc1)C(=O)N2 [Ex. 143] (HELM PEPTIDE1{[O=C([C@H](CCc1ccccc1)N[*:1])[*:2]].C.T.A.S.I.P.P.Q.C.Q.[dP].P}$PEPTIDE1,PEPTIDE1,2:R3-10:R3|PEPTIDE1,PEPTIDE1,1:R1-13:R2$$$V2.0)', 'Coagulation Factor Xa, from uman plasma (Homo sapiens)', '%', 0);

----------
Target: Coagulation Factor Xa, from uman plasma (Homo sapiens)
Experiment: Enzymatic assay, coagulation factor Xa
Where a SMILES comes first, the peptide text is derived from it.
Each entry below carries its recorded FXa at 100 μM %.
endpoint: FXa at 100 μM % (%)

INSERT INTO assay_data (compound, system_name, result_value) VALUES
  ('CC[C@H](C)[C@@H]1NC(=O)[C@@H]2CCCN2C(=O)[C@@H]2CCCN2C(=O)[C@H](CC(=O)O)NC(=O)[C@H](CO)NC(=O)[C@H](CCCCN)NC(=O)[C@H]([C@@H](C)O)NC(=O)[C@@H]2CSSC[C@H](NC1=O)C(=O)N[C@@H](Cc1ccccc1)C(=O)N1CCC[C@@H]1C(=O)N1CCC[C@H]1C(=O)N[C@@H](CCCNC(=N)N)C(=O)N2 [Ex. 75] (HELM PEPTIDE1{R.C.T.K.S.D.P.P.I.C.F.[dP].P}$PEPTIDE1,PEPTIDE1,2:R3-10:R3|PEPTIDE1,PEPTIDE1,1:R1-13:R2$$$V2.0)', 'Coagulation Factor Xa, from uman plasma (Homo sapiens)', 5.7),
  ('CC[C@H](C)[C@@H]1NC(=O)[C@@H]2CCCN2C(=O)[C@@H]2CCCN2C(=O)[C@H](CC(=O)O)NC(=O)[C@H](CO)NC(=O)[C@H](CCCCN)NC(=O)[C@H]([C@@H](C)O)NC(=O)[C@@H]2CSSC[C@H](NC1=O)C(=O)N[C@@H](CO)C(=O)N[C@H](C)C(=O)N[C@@H](CC(=O)O)C(=O)N[C@@H](Cc1ccccc1)C(=O)N2 [Ex. 68] (HELM PEPTIDE1{F.C.T.K.S.D.P.P.I.C.S.[dA].D}$PEPTIDE1,PEPTIDE1,2:R3-10:R3|PEPTIDE1,PEPTIDE1,1:R1-13:R2$$$V2.0)', 'Coagulation Factor Xa, from uman plasma (Homo sapiens)', 8.6);

----------
Each entry below carries its recorded IC50.
Target: Elastase from human neutrophils (Homo sapiens)
Sequence (P08246 30-267): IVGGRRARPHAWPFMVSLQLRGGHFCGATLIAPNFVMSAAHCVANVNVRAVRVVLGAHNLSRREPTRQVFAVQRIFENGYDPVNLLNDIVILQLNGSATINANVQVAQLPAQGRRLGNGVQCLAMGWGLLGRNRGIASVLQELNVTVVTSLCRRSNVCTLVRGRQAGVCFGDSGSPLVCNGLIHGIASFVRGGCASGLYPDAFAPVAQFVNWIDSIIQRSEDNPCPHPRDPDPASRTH
Test: Enzymatic assay, elastase
Conditions: Elastase IC50
Where a SMILES comes first, the peptide text is derived from it.
endpoint: IC50

INSERT INTO results (molecule, endpoint, result_value) VALUES
  ('CCCC[C@@H]1NC(=O)[C@@H]2CCCN2C(=O)[C@H]2CCCN2C(=O)[C@H](Cc2ccc(O)cc2)NC(=O)[C@@H]2CSSC[C@H](NC1=O)C(=O)N[C@@H]([C@@H](C)O)C(=O)N[C@@H]([C@@H](C)O)C(=O)N[C@@H](CO)C(=O)N[C@@H]([C@@H](C)CC)C(=O)N1CCC[C@H]1C(=O)N1CCC[C@H]1C(=O)N[C@@H](Cc1ccc(O)cc1)C(=O)N2 [Ex. 77] (HELM PEPTIDE1{[Nle].C.T.T.S.I.P.P.Y.C.Y.[dP].P}$PEPTIDE1,PEPTIDE1,2:R3-10:R3|PEPTIDE1,PEPTIDE1,1:R1-13:R2$$$V2.0)', 'IC50', '68 nM'),
  ('CC[C@H](C)[C@@H]1NC(=O)[C@@H]2CCCN2C(=O)[C@H]2CCCN2C(=O)[C@H](Cc2ccc(O)cc2)NC(=O)[C@@H]2CSSC[C@H](NC1=O)C(=O)N[C@@H]([C@@H](C)O)C(=O)N[C@@H](C)C(=O)N[C@@H](CO)C(=O)N[C@@H](CC(C)C)C(=O)N1CCC[C@H]1C(=O)N1CCC[C@H]1C(=O)N[C@@H](CCC(N)=O)C(=O)N2 [Ex. 76] (HELM PEPTIDE1{I.C.T.A.S.L.P.P.Q.C.Y.[dP].P}$PEPTIDE1,PEPTIDE1,2:R3-10:R3|PEPTIDE1,PEPTIDE1,1:R1-13:R2$$$V2.0)', 'IC50', '71 nM');
